subject_of_test: Chymotrypsin, from human pancreas (human, UniProt P17538 19-263)
Sequence (P17538 19-263): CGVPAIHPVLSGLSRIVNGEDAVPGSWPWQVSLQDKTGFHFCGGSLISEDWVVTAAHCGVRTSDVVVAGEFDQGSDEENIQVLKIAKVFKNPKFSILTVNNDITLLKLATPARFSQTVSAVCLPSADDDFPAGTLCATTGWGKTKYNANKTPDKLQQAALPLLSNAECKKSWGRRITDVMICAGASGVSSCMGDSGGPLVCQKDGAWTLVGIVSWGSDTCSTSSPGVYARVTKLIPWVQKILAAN
experiment_notes: cell-based or functional assay

# binder, unit_descriptor, % inhibition at 100 µM
measured = [
    ("RXTKSDPPIXF (HELM PEPTIDE1{R.[Nle].T.K.S.D.P.P.I.[Nle].F.[dP].P}$PEPTIDE1,PEPTIDE1,1:R1-13:R2$$$V2.0; SMILES CCCC[C@@H]1NC(=O)[C@H](CCCNC(=N)N)NC(=O)[C@@H]2CCCN2C(=O)[C@H]2CCCN2C(=O)[C@H](Cc2ccccc2)NC(=O)[C@H](CCCC)NC(=O)[C@H]([C@@H](C)CC)NC(=O)[C@@H]2CCCN2C(=O)[C@@H]2CCCN2C(=O)[C@H](CC(=O)O)NC(=O)[C@H](CO)NC(=O)[C@H](CCCCN)NC(=O)[C@H]([C@@H](C)O)NC1=O) [Example 8]", "%", 5.6),
    ("ICTKSDPPXCR (HELM PEPTIDE1{I.C.T.K.S.D.P.P.[Cha].C.R.[dP].P}$PEPTIDE1,PEPTIDE1,2:R3-10:R3|PEPTIDE1,PEPTIDE1,1:R1-13:R2$$$V2.0; SMILES CC[C@H](C)[C@@H]1NC(=O)[C@@H]2CCCN2C(=O)[C@H]2CCCN2C(=O)[C@H](CCCNC(=N)N)NC(=O)[C@@H]2CSSC[C@H](NC1=O)C(=O)N[C@@H]([C@@H](C)O)C(=O)N[C@@H](CCCCN)C(=O)N[C@@H](CO)C(=O)N[C@@H](CC(=O)O)C(=O)N1CCC[C@H]1C(=O)N1CCC[C@H]1C(=O)N[C@@H](CC1CCCCC1)C(=O)N2) [Example 20]", "%", 0),
    ("FCTKSDPPICY (HELM PEPTIDE1{F.C.T.K.S.D.P.P.I.C.Y.[dP].P}$PEPTIDE1,PEPTIDE1,2:R3-10:R3|PEPTIDE1,PEPTIDE1,1:R1-13:R2$$$V2.0; SMILES CC[C@H](C)[C@@H]1NC(=O)[C@@H]2CCCN2C(=O)[C@@H]2CCCN2C(=O)[C@H](CC(=O)O)NC(=O)[C@H](CO)NC(=O)[C@H](CCCCN)NC(=O)[C@H]([C@@H](C)O)NC(=O)[C@@H]2CSSC[C@H](NC1=O)C(=O)N[C@@H](Cc1ccc(O)cc1)C(=O)N1CCC[C@@H]1C(=O)N1CCC[C@H]1C(=O)N[C@@H](Cc1ccccc1)C(=O)N2) [Example 5]", "%", 3),
    ("FCTKSDPPICS (HELM PEPTIDE1{F.C.T.K.S.D.P.P.I.C.S.[dP].P}$PEPTIDE1,PEPTIDE1,2:R3-10:R3|PEPTIDE1,PEPTIDE1,1:R1-13:R2$$$V2.0; SMILES CC[C@H](C)[C@@H]1NC(=O)[C@@H]2CCCN2C(=O)[C@@H]2CCCN2C(=O)[C@H](CC(=O)O)NC(=O)[C@H](CO)NC(=O)[C@H](CCCCN)NC(=O)[C@H]([C@@H](C)O)NC(=O)[C@@H]2CSSC[C@H](NC1=O)C(=O)N[C@@H](CO)C(=O)N1CCC[C@@H]1C(=O)N1CCC[C@H]1C(=O)N[C@@H](Cc1ccccc1)C(=O)N2) [Example 4]", "%", 1.8),
]
